Assay: in vitro
Settings: human microsomes
Parameter measured: Microsomal stability / clearance (in words), human

CS(=O)(=O)N1CCN(c2nc(=O)c3cc(C(F)(F)F)cc([N+](=O)[O-])c3s2)CC1 [compound 11626095] ... lowest clearances
CCS(=O)(=O)N1CCN(c2nc(=O)c3cc(C(F)(F)F)cc([N+](=O)[O-])c3s2)CC1 [compound 11626092] ... lowest clearances
O=c1nc(N2CCN(S(=O)(=O)C3CCCCC3)CC2)sc2c([N+](=O)[O-])cc(C(F)(F)F)cc12 [compound 11326127] ... medium clearances
O=c1nc(N2CCN(S(=O)(=O)c3cccs3)CC2)sc2c([N+](=O)[O-])cc(C(F)(F)F)cc12 [compound 11326059] ... medium clearances

Shift focus to the following entry.
// query Microsomal stability / clearance (in words), human value for entry O=c1nc(N2CCN(S(=O)(=O)C3CC3)CC2)sc2c([N+](=O)[O-])cc(C(F)(F)F)cc12 [compound 11626091]
lowest clearances
